Below: a set of entries, each annotated with reported Inhibition of Notch Activation via DLL4 cells, Notch reporter assay.
target: mouse DLL4 on cells (mouse, UniProt Q9JI71 27-686); experiment: cell-based or functional assay
Sequence (Q9JI71 27-686): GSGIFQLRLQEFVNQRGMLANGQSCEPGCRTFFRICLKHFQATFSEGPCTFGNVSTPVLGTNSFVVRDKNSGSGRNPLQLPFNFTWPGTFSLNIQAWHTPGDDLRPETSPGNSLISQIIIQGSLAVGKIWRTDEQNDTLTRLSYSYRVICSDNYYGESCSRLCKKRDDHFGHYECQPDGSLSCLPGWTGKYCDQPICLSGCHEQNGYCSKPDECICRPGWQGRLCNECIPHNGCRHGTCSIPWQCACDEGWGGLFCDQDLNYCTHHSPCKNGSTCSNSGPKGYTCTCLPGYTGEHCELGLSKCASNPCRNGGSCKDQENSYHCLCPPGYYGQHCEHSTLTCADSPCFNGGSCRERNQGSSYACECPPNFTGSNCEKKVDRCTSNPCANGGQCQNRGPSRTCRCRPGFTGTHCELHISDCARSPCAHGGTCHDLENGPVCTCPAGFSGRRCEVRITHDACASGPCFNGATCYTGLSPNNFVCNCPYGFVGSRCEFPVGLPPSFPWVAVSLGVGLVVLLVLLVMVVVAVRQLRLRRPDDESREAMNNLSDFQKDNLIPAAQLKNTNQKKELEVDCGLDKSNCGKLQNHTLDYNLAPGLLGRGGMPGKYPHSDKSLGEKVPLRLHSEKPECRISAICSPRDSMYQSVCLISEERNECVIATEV
A complete answer gives the number and then names the unit.

Recorded Inhibition of Notch Activation via DLL4 cells, Notch reporter assay, per entry:
>>> test_result("h1A11.H2 (antibody, V domains shown, also called h1A11.H2 VH / h1A11.E12 VL) VH: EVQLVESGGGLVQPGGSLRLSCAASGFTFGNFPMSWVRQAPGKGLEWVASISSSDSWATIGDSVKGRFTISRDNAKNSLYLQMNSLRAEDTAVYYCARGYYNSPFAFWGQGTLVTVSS VL: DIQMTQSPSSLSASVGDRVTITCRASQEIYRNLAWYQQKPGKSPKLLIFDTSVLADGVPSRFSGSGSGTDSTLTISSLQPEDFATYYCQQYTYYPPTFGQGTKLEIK")
"0.586 nM"
>>> test_result("h1A11.A7 (antibody, V domains shown, also called h1A11VH.1 / h1A11.A7 VL) VH: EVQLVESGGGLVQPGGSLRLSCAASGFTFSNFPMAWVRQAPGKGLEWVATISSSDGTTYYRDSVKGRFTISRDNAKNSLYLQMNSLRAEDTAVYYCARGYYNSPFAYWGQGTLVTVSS VL: DIQMTQSPSSLSASVGDRVTITCRASQDIYINLAWYQQKPGKAPKLLIFDTSDLADGVPSRFSGSGSGTDFTLTISSLQPEDFATYYCQQYDYYPPTFGQGTKLEIK")
"1.79 nM"
>>> test_result("h1A11.A8 (antibody, V domains shown, also called h1A11.A8 VH / h1A11VL.1) VH: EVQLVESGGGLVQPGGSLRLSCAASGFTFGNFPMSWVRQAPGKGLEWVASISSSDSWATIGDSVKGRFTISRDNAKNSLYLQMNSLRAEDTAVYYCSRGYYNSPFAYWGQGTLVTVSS VL: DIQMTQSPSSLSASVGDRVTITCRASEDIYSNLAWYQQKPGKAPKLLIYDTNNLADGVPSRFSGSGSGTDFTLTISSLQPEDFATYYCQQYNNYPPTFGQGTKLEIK")
"1.25 nM"
>>> test_result("h1A11.A2 (antibody, V domains shown, also called h1A11VH.1 / h1A11.A2 VL) VH: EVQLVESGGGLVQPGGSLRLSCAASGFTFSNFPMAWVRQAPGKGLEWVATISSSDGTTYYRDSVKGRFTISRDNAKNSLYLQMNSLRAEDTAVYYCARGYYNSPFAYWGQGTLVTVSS VL: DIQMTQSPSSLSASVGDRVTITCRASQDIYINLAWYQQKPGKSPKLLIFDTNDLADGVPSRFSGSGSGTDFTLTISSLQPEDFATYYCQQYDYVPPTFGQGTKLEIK")
"0.854 nM"

// query Inhibition of Notch Activation via DLL4 cells, Notch reporter assay value for entry h1A11.A12 (antibody, V domains shown, also called h1A11VH.1 / h1A11.A12 VL) VH: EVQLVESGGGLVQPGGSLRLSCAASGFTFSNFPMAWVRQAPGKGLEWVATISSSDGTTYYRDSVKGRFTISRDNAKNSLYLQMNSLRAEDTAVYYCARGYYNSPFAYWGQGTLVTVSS VL: DIQMTQSPSSLSASVGDRVTITCRASQDIYYNLAWYQQKPGKSPKLLIFDTSSLADGVPSRFSGSGSGTDFTLTISSLQPEDFATYFCQQYDWYPPTFGQGTKLEIK
0.832 nM
